Field pIC50: reported value for JNK3 (Homo sapiens); entries drawn from several documents.
pIC50: −log10 of the molar value.

Please review the following examples before continuing.
>>> df
                                   compound          test_target  test_result
0          CN(C)c1ccc(Nc2ccc3cc[nH]c3n2)cc1  JNK3 (Homo sapiens)       ≥ 5.00
1  N#Cc1csc(NC(=O)Cc2cccc3cnccc23)c1-c1ncn[nH]1  JNK3 (Homo sapiens)       > 7.00
2  CN(C)CCCn1cnc(-c2c(Cl)csc2NC(=O)Cn2c(=O)ccc3cc(C(F)(F)F)ccc32)n1  JNK3 (Homo sapiens)       > 7.00
3  CCCCN(CCCC)C(=O)n1ccc2c(C(=O)c3c[nH]c4ncc(-c5cccnc5)cc34)cccc21  JNK3 (Homo sapiens)       ≥ 5.00

Observed pIC50 on JNK3 (Homo sapiens), entry C#CCNC(=O)c1c[nH]c2ncc(-c3cccc(F)c3)cc12 , equals 6.07

# Nc1c(N2CCN(C3CCCCC3)CC2)cc(Nc2ccc(C(=O)O)cc2)c2c1C(=O)c1ccccc1C2=O with JNK3 (Homo sapiens): pIC50 is < 5.00

The compound [2H]C([2H])([2H])N1CC[C@H](NC(=O)c2cc(-n3ncc4cc(Oc5ccccc5Cl)ccc43)cs2)C1 , tested on JNK3 (Homo sapiens), showed pIC50 of > 6.70

Observed pIC50, JNK3 (Homo sapiens), COc1ccc(CC(=O)Nc2ccsc2-c2cnccn2)cc1 : 5.00 to 7.00

Item N#CCc1cnc(-c2ccc(Cl)c(Cl)c2)n1-c1ccnc(NC2CCCNC2)n1 (stereo not drawn) ; assay system JNK3 (Homo sapiens); pIC50 reported as 7.00 to 7.52

----------
IC50 for JNK3 (Homo sapiens) - collated from the literature.

Known results for molecules:
>>> df
                               query_smiles  reported_property  test_result
0     c1cc2cc(Nc3ccc(N4CCCCC4)cc3)cnc2[nH]1               IC50   ≤ 10000 nM
1          CCOc1cnc2[nH]cc(-c3cnn(C)c3)c2c1               IC50     < 500 nM
2  CC(C)NC(=O)c1cc(-n2ncc3nc(Oc4ccccc4Cl)ncc32)cs1               IC50    > 1000 nM
3  FC(F)(F)c1csc(-c2c[nH]c3ncc([C@H]4CC[C@H](N5CCCC5)CC4)cc23)n1               IC50       692 nM

Now look at this one.
Record summary for CS(=O)(=O)Nc1cccc(-c2cnc3[nH]cc(C(=O)c4cccc(O)c4F)c3c2)c1 : reported IC50 = ≤ 10000 nM

----------
Published IC50 for JNK3 (Homo sapiens, UniProt P53779), assembled from different documents, is shown next.

                                   compound                          test_target  reported_property     test_result
0  O=C(c1cccc(O)c1F)c1c[nH]c2ncc(-c3cccnc3)cc12  JNK3 (Homo sapiens, UniProt P53779)               IC50      ≤ 10000 nM
1             Clc1cccc(Nc2c[nH]c3ncccc23)c1  JNK3 (Homo sapiens, UniProt P53779)               IC50      ≤ 10000 nM
2  COc1cccc(C(=O)c2c[nH]c3ncc(-c4cccc(/C=C/C(=O)O)c4)cc23)c1  JNK3 (Homo sapiens, UniProt P53779)               IC50      ≤ 10000 nM
3  CN1CCCC1c1nc(-c2c[nH]c3ncc([C@H]4CC[C@H](N5CCCOCC5)CC4)cc23)cs1 (stereo partly drawn)  JNK3 (Homo sapiens, UniProt P53779)               IC50         1230 nM
4  O=C(NC1COC1)c1cc(-n2ncc3cc(Oc4ccccc4Cl)ncc32)cs1  JNK3 (Homo sapiens, UniProt P53779)               IC50  200 to 1000 nM

Item: O=C(NCCCN1CCCC1=O)c1ccc2[nH]nc(-c3cc4ccccc4s3)c2c1 | System: JNK3 (Homo sapiens, UniProt P53779) | IC50: 54 nM

Assay JNK3 (Homo sapiens, UniProt P53779), sample CCCCNC(=O)n1ccc2c(C(=O)c3c[nH]c4ncc(Br)cc34)cccc21 , IC50 read: ≤ 10000 nM

Test item O=C(Cc1cccc2cnccc12)Nc1ccsc1-c1csc(Cl)n1 ; JNK3 (Homo sapiens, UniProt P53779); reported IC50 was 100 to 10000 nM

Let me check: O=C(CN1C(=O)CCc2ncccc21)Nc1scc(Cl)c1-c1nc[nH]n1 , system JNK3 (Homo sapiens, UniProt P53779), measured IC50 is < 100 nM

Bench note, JNK3 (Homo sapiens, UniProt P53779): N#CCc1cnc(-c2ccc3ccccc3n2)n1-c1ccnc(NC2CCCNC2)n1 (stereo not drawn) , IC50 reads 30 to 100 nM

----------
Literature survey of IC50 (system: JNK3 (Homo sapiens, UniProt P53779)).

The cases that follow already have their IC50 on record.
>>> df
                               query_smiles                          test_target  test_result
0  COc1ccc(CC(=O)Nc2ccsc2-c2c[nH]c(C)n2)cc1  JNK3 (Homo sapiens, UniProt P53779)   > 10000 nM
1  Cc1c(O)cccc1C(=O)c1c[nH]c2ncc(-c3cccs3)cc12  JNK3 (Homo sapiens, UniProt P53779)   ≤ 10000 nM
2  COc1ccc(COC[C@H]2CCc3nc(-c4ccc(F)cc4)c(-c4ccnc(NC5CCC5)c4)n32)cc1  JNK3 (Homo sapiens, UniProt P53779)       301 nM
3  O=C(O)/C=C/c1ccc(-c2cnc3[nH]cc(C(=O)c4ccccc4F)c3c2)cc1  JNK3 (Homo sapiens, UniProt P53779)   ≤ 10000 nM
4  O=C(Cn1c(=O)ccc2cc(C(F)(F)F)ccc21)Nc1scc(Cl)c1-c1ncn(CCCN2CCOCC2)n1  JNK3 (Homo sapiens, UniProt P53779)     < 100 nM
5  CCCNC(=O)C#Cc1c[nH]c2ncc(-c3ccccc3Oc3ccccc3)cc12  JNK3 (Homo sapiens, UniProt P53779)     < 500 nM
6  CCNc1nccc(-c2c(-c3ccc(F)cc3)nc3n2[C@H](COc2ncccn2)CC3)n1  JNK3 (Homo sapiens, UniProt P53779)        29 nM
7  O=C(c1nc(-c2c[nH]c3ncc(C4CCC5(CC4)OCCO5)cc23)cs1)N1CCCCC1  JNK3 (Homo sapiens, UniProt P53779)        16 nM

Turning to the following compound.
Summary line: COC(=O)COc1ccc(F)c(Cc2c[nH]c3ncc(-c4cccnc4)cc23)c1F , JNK3 (Homo sapiens, UniProt P53779), reported IC50 = ≤ 10000 nM

----------
A compilation of pIC50 values for JNK3 (Homo sapiens) from the published literature.
pIC50: −log10 of the molar value.

>>> df
                                   molecule  reported_property  test_result
0  Cn1cc(-c2c[nH]c3ncc(C4CCC(N5CCC5)CC4)cc23)cn1 (stereo not shown)              pIC50         6.99
1  CCCOc1c(C(=O)N[C@H](CO)C(C)C)ccc2[nH]nc(-c3cc4ccccc4o3)c12              pIC50         7.08
2  CN(C)c1ccc(-c2cnc3[nH]cc(-c4cc[nH]c4)c3c2)cc1              pIC50       > 6.30

Reported pIC50 of COc1ccc(CC(=O)Nc2sccc2-c2nnn(C)n2)cc1 : 5.00 to 7.00

Per the records, this molecule ( O=C(Cn1c(=O)ccc2cc(C(F)(F)F)ccc21)Nc1ccsc1-c1cscn1 ) has pIC50 equal to > 7.00

// pIC50 value for c1cc2cc(Nc3ccc4c(c3)OCCO4)cnc2[nH]1 : ≥ 5.00

The reported value for c1csc(-c2cnc3[nH]ccc3c2)c1 in terms of pIC50 is ≥ 5.00

Given item N#Cc1csc(NC(=O)Cc2cccc3ncccc23)c1-c1cnccn1 , the value recorded as its pIC50 is > 7.00

Query CCOC(=O)COc1cnc2[nH]cc(-c3cnn(C)c3)c2c1 yields pIC50 of > 5.70

# molecule CCNC(=O)c1cc(-n2ncc3cc(Nc4ccccc4Cl)ncc32)cs1 ; its pIC50 = > 6.70

pIC50 for CCCN(CCOC)[C@H]1CC[C@@H](c2cnc3[nH]cc(-c4cnn(C)c4)c3c2)CC1 is 6.53

The molecule identified as CCCCS(=O)(=O)c1cnc2[nH]cc(-c3cn[nH]c3)c2c1 registered its pIC50 at > 6.00

Lab book: pIC50 of Clc1ccccc1Nc1ccc2cc[nH]c2n1 noted as ≥ 5.00

For reference, reported pIC50 for FC(F)(F)c1csc(-c2c[nH]c3ncc([C@H]4CC[C@H](N5CCOCC5)CC4)cc23)n1 stands at 6.35
